molecular target: human H1 receptor (Homo sapiens, UniProt P35367); construct: expressed in transfected cells; test: Histamine H1 functional antagonist assay (FLIPR): antagonist pA2; type: cell-based; conditions: CHO cells expressing H1 receptor, FLIPR, histamine concentration response curves; read-out: average pA2 (converted)
Sequence (P35367 whole entry): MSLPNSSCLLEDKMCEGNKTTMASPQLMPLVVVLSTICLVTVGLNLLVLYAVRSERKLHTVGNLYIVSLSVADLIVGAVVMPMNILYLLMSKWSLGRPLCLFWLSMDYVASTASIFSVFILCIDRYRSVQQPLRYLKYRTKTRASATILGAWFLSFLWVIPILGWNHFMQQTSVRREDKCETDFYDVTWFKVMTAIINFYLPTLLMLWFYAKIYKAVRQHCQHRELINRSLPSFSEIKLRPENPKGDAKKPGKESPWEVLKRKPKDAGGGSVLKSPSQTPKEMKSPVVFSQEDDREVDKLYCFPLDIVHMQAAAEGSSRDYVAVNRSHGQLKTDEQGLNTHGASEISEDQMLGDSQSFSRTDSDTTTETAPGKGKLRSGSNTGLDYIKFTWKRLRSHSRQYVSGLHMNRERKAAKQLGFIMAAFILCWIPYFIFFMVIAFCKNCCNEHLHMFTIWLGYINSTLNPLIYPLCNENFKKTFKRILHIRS
Where a name gives a salt, the structure may show the parent alone.
measure name: Kb

Record excerpt, results attached:
compound: CCCCc1cc(OC2CCN(CCCNS(=O)(=O)CCC)CC2)c2ncccc2c1 [Example 18, dihydrochloride salt]
Kb: < 1 nM

compound: CCCCc1cc(O[C@@H]2CCN(CCCS(=O)(=O)C(C)(C)C)C2)c2ncccc2c1 [Example 12, dihydrochloride salt]
Kb: < 100 nM

compound: CCCCc1cc(OC2CCN(CCCNS(=O)(=O)C(C)C)CC2)c2ncccc2c1 [Example 19, dihydrochloride salt]
Kb: < 1 nM

Field: Kb. Fill in for each record below.
1. CCCCc1cc(OC2CCN(CCS(=O)(=O)C(C)(C)C)CC2)c2ncccc2c1 [Example 2, dihydrochloride salt]
2. CCCCc1cc(OC2CCN(CCCCCNS(=O)(=O)CC)CC2)c2ncccc2c1 [Example 32, dihydrochloride salt]
3. CCCCCc1cc(OC2CCN(CCCS(=O)(=O)CC)CC2)c2ncccc2c1 [Example 11, dihydrochloride salt]
4. CCCCc1cc(OC2CCN(CCNS(=O)(=O)CC(C)C)CC2)c2ncccc2c1 [Example 15, dihydrochloride salt]

1: < 1 nM; 2: < 1 nM; 3: < 1 nM; 4: < 10 nM
